- target.or.test.system: T1, USH1C_3, Q9Y6N9
- T1 sequence (Q9Y6N9 447-547, limits assumed, looked up): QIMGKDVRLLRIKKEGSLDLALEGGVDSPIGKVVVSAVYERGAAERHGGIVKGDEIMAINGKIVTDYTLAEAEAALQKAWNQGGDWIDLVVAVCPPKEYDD
- experimental.details: holdup assay
- Set-up: key: below the threshold = too weak to quantify, mostly under pKd 3.1 to 4
- run.conditions: plain residues with an end cap or a label only (N-terminal biotin on a linker: ttds)
property: pKd

binder	pKd
SSRTRRETQL [HPV16-E6, P03126]	below the threshold
SVWLRKETRV [CYSLTR2, Q9NS75]	below the threshold
RSLEEEESQL [GRASP, Q7Z6J2]	below the threshold
STLTIFETAL [ABCC4, O15439]	below the threshold
PKTPPTDTSV [KIR3DL3, Q8N743]	below the threshold

Task: Find the measured pKd of QSARYRDTEL [TJP2, Q9UDY2] and report it.
Output: below the threshold
